# System: VTT-E-193585 strain
# TEST SUMMARY: Antibiotic susceptibility (MIC), CLSI M07 broth microdilution / agar dilution
# Assay type: cell-based, Xanthobacter sp.
# SETTINGS: VTT-E-193585, 48 h ± 1 h, aerobic, +35±2° C., cation-adjusted Mueller Hinton Broth; fosfomycin by agar dilution; read-out: Minimum Inhibitory Concentration (MIC)
Could you mark each record Fulfilled if its MIC falls strictly under 0.5 µg/mL, and Not fulfilled if it equals or exceeds it?

The following compounds have reported results that may help.
COMPOUND	CATEGORY
CC1(C)S[C@@H]2[C@H](NC(=O)[C@H](N)c3ccccc3)C(=O)N2[C@H]1C(=O)O [Ampicillin, ampicillin]	Not fulfilled
C[C@@H]1O[C@@H]1P(=O)(O)O [Fosfomycin, fosfomycin]	Not fulfilled
NC[C@H]1O[C@H](O[C@H]2[C@H](O)[C@@H](O[C@H]3O[C@H](CO)[C@@H](O)[C@H](N)[C@H]3O)[C@H](N)C[C@@H]2N)[C@H](O)[C@@H](O)[C@@H]1O [Kanamycin, kanamycin]	Not fulfilled

Shifting focus to the compound that follows.
### Prompt Confirm or reject: MIC of CN(C)[C@@H]1C(O)=C(C(N)=O)C(=O)[C@@]2(O)C(O)=C3C(=O)c4c(O)cccc4[C@@](C)(O)[C@H]3C[C@@H]12 [Tetracycline, tetracycline] lies strictly below 0.5 µg/mL
### Response Fulfilled
